Molecular target: T1, FLAG-tagged human APRIL (human, UniProt O75888 105-250, limits assumed)
T1 construct: also called FLAG-tagged APRIL; FLAG-APRIL; not shown: FLAG tag
T1 sequence (looked up): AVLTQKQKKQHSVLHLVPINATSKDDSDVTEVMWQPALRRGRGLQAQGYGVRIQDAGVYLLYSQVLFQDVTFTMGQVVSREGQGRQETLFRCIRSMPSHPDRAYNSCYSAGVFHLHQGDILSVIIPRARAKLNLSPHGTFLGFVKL
Experiment: FLAG-APRIL ELISA after 10 min at 70 °C, antibody at 1 µg/ml
measured.endpoint: % residual binding after heat treatment (room temperature = 100%)

binder	reported.result
VH13.VL15 (antibody, human IgG4 S228P, kappa, V domains shown, Humanized IgG4 (S241P, Kabat) with human kappa, from HEK293T; also called 13.15) VH: QVQLVQSGAEVKKPGASVKVSCKASGYTFTSYVMHWVRQAPGQGLEWMGYINPYNDAPKYNEKFKGRVTMTRDTSTSTVYMELSSLRSEDTAVYYCARGLGYALYYAMDYWGQGTMVTVSS VL: DIVMTQSPSTLSASVGDRVTITCKASQNVGNNVAWYQQKPGKAPKLLISSASNRDSGVPSRFSGSGSGTEFTLTISSLQPDDFATYFCQQYNIYPFTFGQGTKLEIKR	47.4
VH14.VL15 (antibody, human IgG4 S228P, kappa, V domains shown, Humanized IgG4 (S241P, Kabat) with human kappa, from HEK293T) VH: QVQLVQSGAEVKKPGASVKVSCKASGYTFTSYVMHWVRQAPGQGLEWMGYINPYNDAPKYNEKFKGRVTMTRDTSASTAYMELSSLRSDDTAVYYCARGLGYALYYAMDYWGQGTTVTVSS VL: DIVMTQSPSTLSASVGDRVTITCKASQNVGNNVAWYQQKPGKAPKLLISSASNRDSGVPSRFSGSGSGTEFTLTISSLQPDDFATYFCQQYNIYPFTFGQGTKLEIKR	42.5
VH11.VL15 (antibody, human IgG4 S228P, kappa, V domains shown, Humanized IgG4 (S241P, Kabat) with human kappa, from HEK293T; also called 11.15) VH: QVQLVQSGAEVKKPGASVKVSCKASGYTFTSYVMHWVRQAPGQRLEWMGYINPYNDAPKYNEKFKGRVTITRDTSASTAYMELSSLRSEDTAVYYCARGLGYALYYAMDYWGQGTTVTVSS VL: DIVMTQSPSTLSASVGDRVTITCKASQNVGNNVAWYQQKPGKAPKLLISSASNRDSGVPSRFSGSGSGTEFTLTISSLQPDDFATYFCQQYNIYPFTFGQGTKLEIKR	62.4
hAPRIL.01A (antibody, mouse IgG1, kappa, V domains shown, Mouse antibody; also called mouse hAPRIL.01A antibody) VH: EVQLQQSGPELVKPGASVKMSCKASGYTFTSYVMHWVKQKPGQGLEWIGYINPYNDAPKYNEKFKGKATVTSDKSSGTAYMELSSLTSEDSAVYYCARGLGYALYYAMDYWGQGTSVTVSS VL: DIVMTQSQKFKSTSVGDRVSVTCKASQNVGNNVAWYQQKAGQSPKALISSASNRDSGVPDRFTGSGSGTDFTLTISNVQSEDLADYFCQQYNIYPFTFGSGTKLEIKR	4.9
VH12.VL15 (antibody, human IgG4 S228P, kappa, V domains shown, Humanized IgG4 (S241P, Kabat) with human kappa, from HEK293T; also called 12.15) VH: QVQLVQSGAEVKKPGASVKVSCKASGYTFTSYVMHWVRQAPGQGLEWMGYINPYNDAPKYNEKFKGRVTMTRDTSISTAYMELSRLRSDDTAVYYCARGLGYALYYAMDYWGQGTTVTVSS VL: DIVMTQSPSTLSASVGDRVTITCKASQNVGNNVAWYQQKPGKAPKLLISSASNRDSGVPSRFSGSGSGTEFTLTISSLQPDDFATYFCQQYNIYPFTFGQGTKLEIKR	51.8

These measurements were taken from patent US20160264674A1.
